test: Cytotoxicity against human P493-6 cells with where Myc is in OFF- condition assessed as reduction in cell viability incubated for 3 days by CellTiter-Glo assay; assay type: cell-based
ENDPOINT_LABEL: IC50

State the recorded IC50 for this entry: `O=C1N(CCS(=O)(=O)c2ccccc2)Cc2ccccc2[C@@H]2OC(c3ccc(OCCCO)cc3)=N[C@]12Cc1ccccc1` > 50 µM

* * *

assay: Cytotoxicity against human P493-6 cells with where Myc is in ON- condition assessed as reduction in cell viability incubated for 3 days by CellTiter-Glo assay; type: functional, cell-based
ENDPOINT_LABEL: IC50

State the recorded IC50 for this entry: O=C1N(CCS(=O)(=O)c2ccccc2)Cc2ccccc2[C@@H]2OC(c3ccc(OCCCO)cc3)=N[C@]12Cc1ccccc1 (racemic) 6.8 to 14.5 µM
